assay: Tissue distribution of TET after a single i.t. administration in normal and LPS-treated mice; conditions: BALB/c, mouse, liver, other: intratracheal (i.t.), 15 mg/kg, Kp (AUC in tissue divided by AUC in blood), normal mice; 15 mg/kg i.t.; liver
metric: Kp
Number only, please.

Prompt: Assign Kp to the following record: `COc1ccc2cc1Oc1ccc(cc1)C[C@H]1c3cc(c(OC)cc3CCN1C)Oc1c(OC)c(OC)cc3c1[C@H](C2)N(C)CC3`
Response: 28

###

Assay: Tissue distribution of TET after a single i.t. administration in normal and LPS-treated mice
Conditions: BALB/c, mouse, muscle, inhaled or intranasal, 15 mg/kg, MRT, normal mice; 15 mg/kg i.t.
Protocol: The different tissue distribution characteristics of TET in normal and pneumonia model mice via i.t. delivery were investigated. Thirty BALB/c mice were randomly divided into ten groups (n = 3 for each group). […] Pharmacokinetic parameters including t1/2, AUC(0-t), AUC(0-∞), and MRT were calculated using WinNonlin 7.0 (Pharsight, CA) by the non-compartmental model. […] Blood clearance (CL) was calculated as the i.v. dose divided by AUCinf. […]
metric: MRT (h)
Number only, in h; omit the unit.

Prompt: Look up MRT of COc1ccc2cc1Oc1ccc(cc1)C[C@H]1c3cc(c(OC)cc3CCN1C)Oc1c(OC)c(OC)cc3c1[C@H](C2)N(C)CC3 [TET, Tetrandrine] and report it.
Response: 57.7

###

assay: Tissue distribution of TET after a single i.t. administration in normal and LPS-treated mice; conditions: BALB/c, mouse, brain / blood, other: intratracheal (i.t.), 15 mg/kg, Kp (AUC in tissue divided by AUC in blood), LPS-treated mice; 15 mg/kg i.t.; brain
metric: Kp
Write no unit; give the number alone.

Prompt: Assign Kp to the following record: `COc1ccc2cc1Oc1ccc(cc1)C[C@H]1c3cc(c(OC)cc3CCN1C)Oc1c(OC)c(OC)cc3c1[C@H](C2)N(C)CC3`
Response: 0.6

###

experiment: Tissue distribution of TET after a single i.t. administration in normal and LPS-treated mice; settings: BALB/c, mouse, heart, inhaled or intranasal, 15 mg/kg, Cmax, LPS-treated mice; 15 mg/kg i.t.
metric: Cmax (ng/mL)
State the answer as a number, implicitly in ng/mL.

Prompt: Tell us which Cmax value is on record for `COc1ccc2cc1Oc1ccc(cc1)C[C@H]1c3cc(c(OC)cc3CCN1C)Oc1c(OC)c(OC)cc3c1[C@H](C2)N(C)CC3`
Response: 10800

###

test: Tissue distribution of TET after a single i.t. administration in normal and LPS-treated mice; details: BALB/c, mouse, liver, inhaled or intranasal, 15 mg/kg, AUC(0-∞), LPS-treated mice; 15 mg/kg i.t.
metric: AUC(0-inf) (µg·h/mL)
Express the result in µg·h/mL but write the number alone.

Prompt: Give recorded AUC(0-inf). COc1ccc2cc1Oc1ccc(cc1)C[C@H]1c3cc(c(OC)cc3CCN1C)Oc1c(OC)c(OC)cc3c1[C@H](C2)N(C)CC3 [TET, Tetrandrine]
Response: 7430

###

experiment: Tissue distribution of TET after a single i.t. administration in normal and LPS-treated mice; settings: BALB/c, mouse, blood, inhaled or intranasal, 15 mg/kg, Tmax, normal mice; 15 mg/kg i.t.
metric: Tmax (h)
Provide the reading as a plain figure in h.

Prompt: For the compound COc1ccc2cc1Oc1ccc(cc1)C[C@H]1c3cc(c(OC)cc3CCN1C)Oc1c(OC)c(OC)cc3c1[C@H](C2)N(C)CC3 [TET, Tetrandrine] , give its reported Tmax.
Response: 3.33
